- Test system: CCRF-CEM leukemia
- Test Details: NCI-60 one-dose screen, 48 h (100 = growth as untreated, 0 = no growth, -100 = all killed)
- Experimental Conditions: 10 µM unless noted
Compounds without any hit were thinned out: in the full panel of roughly 83,000, 20% have a hit.
So basically, if growth comes in under 80% it's 1 (yes), and if it's 80% or more it's 0 (no).

Inquiry: Confirm or reject: growth of `Cc1ccc(C2=Nn3c(nnc3-c3ccccc3)SC2)cc1` lies strictly below 80%
Reply text: 1 (yes)

Inquiry: Confirm or reject: growth of `COc1ccc2[nH]cc(-c3csc4nc(-c5ccccc5)cn34)c2c1` lies strictly below 80%
Reply text: 1 (yes)

Inquiry: Confirm or reject: growth of C[C@@H]1C[C@H]2C(=O)O[C@@H](C)C(NC(=O)[C@H](Cc3cc(F)cc(F)c3)NC(=O)Nc3ccc(C4CC4)cc3F)C(=O)N3CCC[C@H]3C(=O)N3CCCC[C@H]3C(=O)N[C@@H](CO)C(=O)N2C1 (stereo partly drawn) lies strictly below 80%
Reply text: 1 (yes)

Inquiry: Confirm or reject: growth of `Cc1ccc(N2C(=O)/C(=C/C=C/c3ccco3)SC2=S)cc1` lies strictly below 80%
Reply text: 1 (yes)

Inquiry: Confirm or reject: growth of COC(=O)c1[nH]nc2c1C1(C(=O)c3cccc4cccc1c34)C(C#N)=C(N)O2 (stereo not drawn) lies strictly below 80%
Reply text: 0 (no)

Inquiry: Confirm or reject: growth of `Cc1ccc(-c2cc3nc(C(Cl)Cl)nc(-c4ccco4)n3n2)cc1` lies strictly below 80%
Reply text: 0 (no)

Inquiry: Confirm or reject: growth of `COc1ccc([C@@H]2[C@@H](O)C(=O)N2c2cc(OC)c(OC)c(OC)c2)cc1F` lies strictly below 80%
Reply text: 1 (yes)

Inquiry: Confirm or reject: growth of `CC1(COc2ccc3ncc(C#Cc4cncc(C(=O)Nc5cccc(C(F)(F)F)c5)c4)n3n2)COC1` lies strictly below 80%
Reply text: 0 (no)

Inquiry: Confirm or reject: growth of `COc1cc(OC)c(S(N)(=O)=O)cc1C(=O)/C=C/c1ccc(Cl)cc1` lies strictly below 80%
Reply text: 1 (yes)

Inquiry: Confirm or reject: growth of `CC1(C)CC[C@]2(C(=O)O)CC[C@]3(C)C(=CC[C@@H]4[C@@]5(C)CC/C(=N\OCCC#N)C(C)(C)[C@@H]5CC[C@]43C)[C@@H]2C1` lies strictly below 80%
Reply text: 0 (no)

Inquiry: Confirm or reject: growth of `O=c1[nH]c2ccccc2cc1CSc1ccccc1Nc1nccc(-c2ccc(Cl)cc2)n1` lies strictly below 80%
Reply text: 0 (no)

Inquiry: Confirm or reject: growth of `O=C(CCn1c[n+](CC(=O)c2ccc(F)cc2)c2ccccc21)Nc1cccc2cccnc12` lies strictly below 80%
Reply text: 1 (yes)

Inquiry: Confirm or reject: growth of `C=C1CC[C@@H]2[C@](C)(CO)[C@H](O)CC[C@@]2(C)[C@@H]1C/C(O)=C1\CCOC1=O` lies strictly below 80%
Reply text: 1 (yes)

Inquiry: Confirm or reject: growth of CCNC(=O)N1CCc2cc(OC)c(OCCc3ccc(OC)nc3)cc2C1c1ccc(OC)cc1C (stereo not drawn) lies strictly below 80%
Reply text: 1 (yes)

Inquiry: Confirm or reject: growth of `COc1ccc(COc2ccc(/C=C3\C(=O)Nc4ccccc43)cc2OC)cc1` lies strictly below 80%
Reply text: 0 (no)

Inquiry: Confirm or reject: growth of `Nc1ncc(-c2ccc(NS(=O)(=O)c3ccc(Cl)c(Cl)c3)cc2)[nH]1` lies strictly below 80%
Reply text: 1 (yes)

Inquiry: Confirm or reject: growth of `COc1ccc(Cn2cc3c(c2-c2cc(OC)c(OC)c(OC)c2)CCc2c(CN4CCCC4)noc2-3)cc1` lies strictly below 80%
Reply text: 1 (yes)

###

- System: SF-295 CNS
- Test Details: NCI-60 one-dose screen, 48 h
- Experimental Conditions: 10 µM unless noted
- Procedure: Cells are grown in 96 well plates and exposed to the test compound for 48 hours. Compounds are tested at a single concentration, which is 10^-5 M for most compounds. The reported endpoint is percent growth (GI% or GIPRCNT), where numbers from 0 - 100% represent growth inhibition, and numbers from -100% - 0 represent cell death. For example, a value of 40 represents 60% growth inhibition. A value of 0 means no net growth occurred over the course of the experiment. […]
The panel holds about 83,000 compounds, 20% with a hit somewhere; the sample as a whole holds those more often. Activity calls are given as the source filed them. Rule for the calls: active = growth percent below 10; inactive = the rest.
Write down the outcome that applies. Available outcomes: y = active, n = inactive

Inquiry: Hi team, can someone confirm the assay call for Cc1ccc2sc3c(c2c1)OC(N)=C(C#N)C3c1cccc(F)c1 (stereo not drawn) ?
Reply text: y

Inquiry: Hi team, can someone confirm the assay call for Nc1nc(N)c2c(n1)NC(c1ccc(C(F)(F)F)cc1)CC(c1ccc(Nc3nc(NCCO)nc(N4CCOCC4)n3)cc1)=N2 (stereo not drawn) ?
Reply text: n

Inquiry: Hi team, can someone confirm the assay call for `CS(=O)(=O)Nc1cc(-c2ccc3ncc(C#N)c(NCc4ccccc4O)c3c2)cnc1Cl` ?
Reply text: y

Inquiry: Hi team, can someone confirm the assay call for `NS(=O)(=O)c1ccc(-n2cc(CN3CCCCC3)nn2)cc1` ?
Reply text: n

Inquiry: Hi team, can someone confirm the assay call for CC1(C)NCCC[C@]2(C)[C@H]3C/C(=N\O)C4[C@@H]5C[C@@](C)(CO)CC[C@]5(C)CC[C@@]4(C)[C@]3(C)CC[C@@H]12 (stereo partly drawn) ?
Reply text: n

Inquiry: Hi team, can someone confirm the assay call for `CC1(C)CC[C@]23CC[C@]4(C)[C@H](CC[C@@H]5[C@@]6(C)CCCN(CO)C(C)(C)[C@@H]6CC[C@]54C)[C@H]2[C@H]1OC3` ?
Reply text: n

Inquiry: Hi team, can someone confirm the assay call for COc1cc2nc(Cl)nc(Nc3cccc(C4=Nc5c(N)nc(N)nc5NC(c5ccc6c(c5)OCO6)C4)c3)c2cc1OC (stereo not drawn) ?
Reply text: n

Inquiry: Hi team, can someone confirm the assay call for `Cc1ccc(-c2nnc(SCc3ccc(O)c4ncccc34)n2-c2ccccc2)cc1` ?
Reply text: y

Inquiry: Hi team, can someone confirm the assay call for `C=CCn1c(-c2nc3ccc(C(=C(C#N)C#N)c4ccccc4)cc3[nH]2)cc2cc(Br)ccc21` ?
Reply text: n

Inquiry: Hi team, can someone confirm the assay call for `O=C(CN1CCN(c2cc(=O)n(-c3ccccc3)c3ccccc23)CC1)Nc1cccc(C(F)(F)F)c1` ?
Reply text: n

Inquiry: Hi team, can someone confirm the assay call for `C#C[C@]1(O)CC[C@H]2[C@@H]3CC=C4c5sc(-c6ccc(C)cc6)nc5CC[C@]4(C)[C@H]3CC[C@@]21C` ?
Reply text: y

Inquiry: Hi team, can someone confirm the assay call for `CCOc1ccc(NC2=C(Cl)C(=O)c3nc(C)ccc3C2=O)cc1` ?
Reply text: n

Inquiry: Hi team, can someone confirm the assay call for `COc1ccc(C(=O)CSc2nc3c(c(Nc4ccc(S(N)(=O)=O)cc4)n2)CCCC3)cc1` ?
Reply text: n

Inquiry: Hi team, can someone confirm the assay call for `Cn1cc(-c2cc(N)n3nc(-c4cn(C)c5ccccc45)cc3n2)c2ccccc21` ?
Reply text: n

Inquiry: Hi team, can someone confirm the assay call for `Cn1cc(-c2nc(N)nnc2-c2c[nH]c3ccc(Br)cc23)c2cc(Br)ccc21` ?
Reply text: n

Inquiry: Hi team, can someone confirm the assay call for `Cc1ccc(-c2nnc(SCc3ccc(O)c4ncccc34)o2)cc1` ?
Reply text: y

Inquiry: Hi team, can someone confirm the assay call for `C[C@@H](Nc1c(C#N)cnc2ccc(-c3cnc(Cl)c(NS(C)(=O)=O)c3)cc12)c1ccccc1` ?
Reply text: y

Inquiry: Hi team, can someone confirm the assay call for `CC(=O)Nc1cccc(Nc2nc(N[C@@H](C)c3ccccc3)c3ccccc3n2)c1` ?
Reply text: y

Inquiry: Hi team, can someone confirm the assay call for `O=c1[nH]c(Sc2sc3ccc(Cl)cc3c2CBr)nc(=S)[nH]1` ?
Reply text: n

Inquiry: Hi team, can someone confirm the assay call for `CC1(C)[C@@H](O)CC[C@]2(C)[C@H]3CC[C@@H]4[C@H]5[C@H](C(=O)/C=C\c6ccncc6)CC[C@]5(O)CC[C@@]4(C)[C@]3(C)CC[C@@H]12` ?
Reply text: n

Inquiry: Hi team, can someone confirm the assay call for `CN1CCN(Cc2ccc(NC(=O)c3cncc(C#Cc4cnc5ccc(OCC(C)(C)O)nn45)c3)cc2C(F)(F)F)CC1` ?
Reply text: y

Inquiry: Hi team, can someone confirm the assay call for `Nn1c(N/N=C/c2nc3ccccc3s2)n[nH]c1=S` ?
Reply text: n

Inquiry: Hi team, can someone confirm the assay call for `O=C1CCCc2nc(Nc3ccc(S(=O)(=O)Nc4ccc([N+](=O)[O-])cc4)cc3)ncc21` ?
Reply text: n

Inquiry: Hi team, can someone confirm the assay call for CC(=O)N1N=C(c2cccc(-n3cccc3)c2)CC1c1cccc(F)c1 (stereo not drawn) ?
Reply text: n

Inquiry: Hi team, can someone confirm the assay call for `O=C(c1ccc(O)cc1)[C@@H]1CN[C@@]2(C(=O)Nc3ccccc32)[C@H]1c1ccc(F)cc1` ?
Reply text: n

Inquiry: Hi team, can someone confirm the assay call for CC(c1ccccc1)N1CSc2nc3ncncc3n2C1 (stereo not drawn) ?
Reply text: n

Inquiry: Hi team, can someone confirm the assay call for `O=C(Nc1ccc2c(ccn2Cc2ccccn2)c1)c1ccnnc1` ?
Reply text: n

Inquiry: Hi team, can someone confirm the assay call for `Nc1ncc(-c2ccc3ncnc(N4CCc5cc(F)c(F)cc54)c3c2)cn1` ?
Reply text: n

Inquiry: Hi team, can someone confirm the assay call for `COc1ccc(/C=C(/C)c2ccc3ccc(OC)cc3[o+]2)c(O)c1` ?
Reply text: n

Inquiry: Hi team, can someone confirm the assay call for `O=C1/C(=C/C=C/c2ccco2)SC(=S)N1c1ccccc1` ?
Reply text: n

Inquiry: Hi team, can someone confirm the assay call for `CN(C)CCNC(=O)c1ccc(-c2nc3ccc4[nH]ncc4c3c3c2CCC3)cc1` ?
Reply text: y

Inquiry: Hi team, can someone confirm the assay call for `O=C(Cn1c(-c2ccccc2)nc2cc(Cl)c(Cl)cc21)N=Nc1c(O)[nH]c2ccc(Cl)cc12` ?
Reply text: n

Inquiry: Hi team, can someone confirm the assay call for `C=C=COc1cccc(/C(N)=N/C(N)=N/c2nc3ccccc3s2)c1` ?
Reply text: n

Inquiry: Hi team, can someone confirm the assay call for `O=C(Nc1nc2ccc([N+](=O)[O-])cc2s1)Nc1ccccc1Br` ?
Reply text: n

Inquiry: Hi team, can someone confirm the assay call for CCc1ccc(SC2c3ccc(N(CC)CC)cc3Oc3nc(N)c(C#N)c(N)c32)cc1 (stereo not drawn) ?
Reply text: y

Inquiry: Hi team, can someone confirm the assay call for `Cn1ccnc1C(=O)/C=C/C=C/c1ccc(C(=O)Nc2ccc(F)cc2)cc1` ?
Reply text: n

Inquiry: Hi team, can someone confirm the assay call for `O=C(Nc1ccc(F)c(F)c1)c1cc(-c2ccc(F)cc2F)ccc1O` ?
Reply text: y

Inquiry: Hi team, can someone confirm the assay call for `NS(=O)(=O)c1ccc(Nc2nc(SCc3ccccc3)nc3ccccc23)cc1` ?
Reply text: n
